assay: collision cross section (TIMS, N2 drift gas) of the primary ion; higher = larger gas-phase ion size; conditions: ionization mode: ESI-; ion species: [M-H]-
Value Kind: collision cross section (Å²)

> print(dat)
                                   molecule               value.kind  output.unit  recorded.number
1  CC(C)c1c(C(=O)Nc2ccccc2)c(-c2ccccc2)c(-c2ccc(F)cc2)n1CCC(O)CC(O)CC(=O)O (configuration not stated)  collision cross section           Å²           228.86
2  O=C(O)c1cc(Oc2ccc(Cl)cc2Cl)ccc1[N+](=O)[O-] [Bifenox free acid]  collision cross section           Å²           177.92
3        OC(Cn1cncn1)(Cn1cncn1)c1ccc(F)cc1F  collision cross section           Å²           158.78
4  CCNc1nc(O)nc(NC(C)C)n1 [2-Hydroxyatrazine]  collision cross section           Å²           146.65
5  C[C@@H](CCC(=O)O)C1CCC2C3C(=O)CC4C[C@H](O)CC[C@]4(C)C3CC[C@@]21C (some centres not stated)  collision cross section           Å²           208.67
6  CCc1cccc(C)c1N(C(=O)C(=O)O)C(C)COC (configuration not stated)  collision cross section           Å²           165.62
7  CC(C)(C)c1cc([N+](=O)[O-])cc([N+](=O)[O-])c1O  collision cross section           Å²            149.2

====

Catalogue of reversed-phase LC retention time readings, one per entry.
experiment: reversed-phase LC retention time (C18, 15 min MeOH gradient); higher = more hydrophobic / later elution; settings: ionization mode: ESI+; ion species: [M+H]+
Value Kind: reversed-phase LC retention time (min)

> print(dat)
                                    compound  recorded.number
 1  O=P1(N(CCCl)CCCl)NCCCO1 (centres undefined) [Cyclophosphamide]             10.5
 2                           CCCCCCCCCCN(C)C             13.7
 3                   O=C(Nc1ccccc1)Nc1ccccc1             12.4
 4  CCC(C)(C)C(=O)OC1=C(c2ccc(Cl)cc2Cl)C(=O)OC12CCCCC2             11.5
 5                 CCCNCCOc1c(Cl)cc(Cl)cc1Cl             12.1
 6                            CCCCCCCCCCCCNC             15.5
 7  C#C[C@]1(O)C=C[C@H]2[C@@H]3CCC4=CC(=O)CC[C@@H]4[C@H]3CC[C@@]21CC               14
 8        COP(=O)(OC)OC [Trimethylphosphate]             6.15
 9  COc1ccccc1Oc1c(NS(=O)(=O)c2ccc(C(C)(C)C)cc2)nc(-c2ncccn2)nc1OCCO             14.8
10  CC(C)(C(=O)O)c1ccc(C(O)CCCN2CCC(C(O)(c3ccccc3)c3ccccc3)CC2)cc1 (centres undefined) [Fexofenadine]             12.8
11  COCC(C)N(C(=O)C(=O)O)c1c(C)csc1C (centres undefined)             11.3
12  CCC(=NOC/C=C/Cl)C1=C(O)CC(C2CCOCC2)CC1=O (centres undefined) [Tepraloxydim (two peaks)]             14.7
13            CCCSc1ccc2[nH]c(NC(=O)OC)nc2c1             13.1
14  CCCCC(CC)COP(=O)(OCC(CC)CCCC)OCC(CC)CCCC (centres undefined) [Tris(2-ethylhexl)phosphate]             19.8
15  CC(C)(C)CC(C)(C)c1ccc(Nc2ccc(C(C)(C)CC(C)(C)C)cc2)cc1             20.2
16  CCCOP(=O)(OCCC)OCCC [Tripropyl phosphate]             14.2
17  O=P(O)(Oc1ccccc1)Oc1ccccc1 [Diphenylphosphate]             17.6
18  CC(C)NCC(O)COc1cccc2ccccc12 (centres undefined)             11.3
19                 CCCCCCCCn1sc(Cl)c(Cl)c1=O             16.9
20  O=C1CCCC2C3CC(CN12)C1CCCCN1C3 (centres undefined)             5.52
21  C[C@H]1C[C@H]2[C@@H]3CCC4=CC(=O)C=C[C@]4(C)[C@@]3(Cl)[C@@H](O)C[C@]2(C)[C@@]1(O)C(=O)CO             13.3
22                   CCN(CC)C(=O)c1cccc(C)c1               13
23  O=C(NCc1ncc(C(F)(F)F)cc1Cl)c1c(Cl)cccc1Cl [Fluopicolide]             14.4
24             CCOP(=S)(OCC)SCSP(=S)(OCC)OCC             16.9

====

experiment: reversed-phase LC retention time (C18, 15 min MeOH gradient); higher = more hydrophobic / later elution; settings: ionization mode: ESI+; ion species: [M+H]+
Value Kind: reversed-phase LC retention time (min)

> print(dat)
                                    molecule  recorded.number
 1  CC12CCC(=O)C=C1C=CC1[C@@H]2CCC2(C)[C@H]1CCC21CCC(=O)O1 (some centres not stated) [Canrenone]             14.2
 2      COc1cc2ccc(=O)oc2c(O)c1OC [Fraxidin]             9.58
 3           c1ccc2nc3ccccc3cc2c1 [Acridine]             8.73
 4  CN(C)S(=O)(=O)c1ccc(N)cc1 [4-Amino-N,N-dimethylbenzenesulfonamide]             7.89
 5  C[C@]12CCC(=O)C=C1CC[C@@H]1[C@@H]2CC[C@]2(C)C(=O)CC[C@@H]12 [4-Androstene-3,17-dione]             13.9
 6    CCC1(c2ccccc2)C(=O)NCNC1=O [Primidone]             9.29
 7  CC(C)C1C2CCC1c1c(NC(=O)c3cn(C)nc3C(F)F)cccc12 (configuration not stated) [Isopyrazam]             16.2
 8  Cn1c(=O)c2[nH]cnc2n(C)c1=O [Theophyllin]             6.64
 9    COP(=S)(OC)Oc1ccc(SC)c(C)c1 [Fenthion]             14.1
10  CCCCCOC(=O)c1ccccc1C(=O)OCCCCC [Di-n-pentylphthalate]             17.4
11  O=c1cc(-c2ccccc2)oc2cc(O)cc(O)c12 [Chrysin]             14.1
12  CCCCC(CC)COC(=O)c1ccccc1C(=O)OCC(CC)CCCC (configuration not stated) [Bis(2-ethylhexyl)phthalate]             19.1
13  CC(C)CC(C)(O)C#CC(C)(O)CC(C)C (configuration not stated) [TMDD]             16.4
14  CN(C)c1ccc(C(=O)c2ccc(N(C)C)cc2)cc1 [Michler's ketone]             14.9
15  CC(C)C1CCC(Cc2ccc(Cl)cc2)C1(O)Cn1cncn1 (configuration not stated) [Ipconazole]             16.4
16  CC(Oc1ccc(Oc2nc3ccc(Cl)cc3o2)cc1)C(=O)O (configuration not stated) [Fenoxaprop-P]             15.3
17  Cn1sc(Cl)cc1=O [Methylchloroisothiazolinone]             7.46

====

test: reversed-phase LC retention time (C18, 15 min MeOH gradient); higher = more hydrophobic / later elution; conditions: ionization mode: ESI-; ion species: [M-H]-

Compound	reversed-phase LC retention time [min]
Oc1ccc2c(c1)C13CCCCC1(O)C(C2)N(CC1CCC1)CC3 (stereo unspecified)	16.6
O=S(=O)(O)C(F)(F)C(F)(F)C(F)(F)C(F)(F)F	11.3
CCC(=O)O[C@]1(C(=O)SCF)[C@H](C)C[C@H]2[C@@H]3C[C@H](F)C4=CC(=O)C=C[C@]4(C)[C@@]3(F)[C@@H](O)C[C@@]21C [Fluticasone propionate]	15.7
C[C@H]1[C@H](C)CC[C@]2(C(=O)O)CC[C@]3(C)C(=CC[C@@H]4[C@@]5(C)CC[C@H](O)C(C)(C)[C@@H]5CC[C@]43C)[C@H]12	17.6
CCC(C)(CC)c1cc(NC(=O)c2c(OC)cccc2OC)on1	14.7
CCOC(=O)c1ccc(O)cc1	11.3
Oc1ccc(C2(c3ccc(O)cc3)CCCCC2)cc1	15.3
CC(C)(C)NC(=O)[C@H]1CC[C@H]2[C@@H]3CC[C@H]4NC(=O)C=C[C@]4(C)[C@H]3CC[C@]12C [Finasteride]	15
Clc1cccc(Cl)c1NC1=NCCN1	9.84
O=C(c1ccc(OCCN2CCCCC2)cc1)c1c(-c2ccc(O)cc2)sc2cc(O)ccc12	15.4
CCOC(=O)[C@H](CCc1ccccc1)N[C@@H](C)C(=O)N1CCC[C@H]1C(=O)O	12.2
C#CCOc1ccc(CCNC(=O)C(OCC#C)c2ccc(Cl)cc2)cc1OC (stereo unspecified)	14.6
Cc1c(Cl)cccc1Nc1ccccc1C(=O)O	14.2
CC(c1ccc(O)cc1)c1ccc(O)cc1	12.7
Oc1ccccc1-c1ccccc1O [2,2'-Dihydroxybiphenyl]	15.6
CC(C)Oc1cccc(NC(=O)c2ccccc2C(F)(F)F)c1	14.7

Measured values drawn from the supplement of paper PMC12613149 for this set.
